# assay explanation: Microsomal metabolic stability
# Type: in vitro ADME, human
# assay setup: human, pH 7.4
Numbered stars: 1 amine (or outer) side, 2 acyl side, 3 side chain; on linkers, the order of the positions; unused ones are H or OH. Bridge positions count the residues as written; N and C are the ends. Square brackets hold non-standard residues; d marks the D form. Peptide text beside a SMILES is read from it. * marks the point of attachment. Piperazine(2S-CO,4-Me) = CN1CCN[C@H](C(=O)O)C1; Morpholine(3S-CO) = O=C(O)[C@@H]1COCCN1; Phe(3-Me) = Cc1cccc(C[C@H](N)C(=O)O)c1; X4 = O=C1CN([*:1])[C@H](C(=O)[*:2])CN1; NH(4-Cl-2-F-phenyl) = Fc1cc(Cl)ccc1N*; Pro(4R-Me) = C[C@H]1CN[C@H](C(=O)O)C1; Propanoyl(3-NMe2) = CN(C)CCC(=O)*; Hyp = O=C(O)[C@@H]1C[C@@H](O)CN1; NH(4-Et-phenyl) = CCc1ccc(N*)cc1; aThr = C[C@H](O)[C@H](N)C(=O)O; Pip = O=C(O)[C@@H]1CCCCN1; CO = O=C([*:1])[*:2]; X2 = Fc1cc(N*)ccc1Cl
Give Human for every item shown.
Entry rule: numbers only, all in h.

input: Can you share its Human? I mean this compound: Cc1cccc(C[C@H](NC(=O)Nc2ccc(Cl)c(F)c2)C(=O)N[C@H]2COC(=O)[C@@H]3C[C@@H](C)CN3C(=O)[C@H](C)NC(=O)[C@@H]3CN(C)CCN3C(=O)[C@@H]3CCCN3C2=O)c1 [Compound 14] ({X2-CO}-[Phe(3-Me)]SP[Piperazine(2S-CO,4-Me)]A[Pro(4R-Me)]; ester 2-C)
output: 0.73

input: Can you share its Human? I mean this compound: Cc1cccc(C[C@H](NC(=O)Nc2ccc(Cl)cc2F)C(=O)N[C@@H]2C(=O)N3C[C@H](OC(=O)CCN(C)C)C[C@H]3C(=O)N3CCCC[C@H]3C(=O)N[C@@H](C)C(=O)N3C[C@H](C)C[C@H]3C(=O)O[C@H]2C)c1 [Compound 46] ({NH(4-Cl-2-F-phenyl)-CO}-[Phe(3-Me)][aThr][Hyp](Propanoyl(3-NMe2))[Pip]A[Pro(4R-Me)]; ester 2-C)
output: 2.09

input: Can you share its Human? I mean this compound: Cc1cccc(C[C@H](NC(=O)Nc2ccc(Cl)cc2F)C(=O)N[C@@H]2C(=O)N3CCC[C@H]3C(=O)N3CC(=O)NC[C@H]3C(=O)N[C@@H](C)C(=O)N3C[C@H](C)C[C@H]3C(=O)O[C@H]2C)c1 [Compound 20] ({NH(4-Cl-2-F-phenyl)-CO}-[Phe(3-Me)][aThr]P[X4]A[Pro(4R-Me)]; ester 2-C)
output: 1.30

input: Can you share its Human? I mean this compound: CCc1ccc(NC(=O)N[C@@H](Cc2cccc(C)c2)C(=O)N[C@@H]2C(=O)N3C[C@H](O)C[C@H]3C(=O)N3CCOC[C@H]3C(=O)N[C@@H](C)C(=O)N3C[C@H](C)C[C@H]3C(=O)O[C@H]2C)cc1 [Compound 24] ({NH(4-Et-phenyl)-CO}-[Phe(3-Me)][aThr][Hyp][Morpholine(3S-CO)]A[Pro(4R-Me)]; ester 2-C)
output: 4.89

input: Can you share its Human? I mean this compound: Cc1cccc(C[C@H](NC(=O)Nc2ccc(Cl)cc2F)C(=O)N[C@@H]2C(=O)N3CCC[C@H]3C(=O)N3CCN(C)C[C@H]3C(=O)N[C@@H](C)C(=O)N3C[C@H](C)C[C@H]3C(=O)O[C@H]2C)c1 [Compound 11] ({NH(4-Cl-2-F-phenyl)-CO}-[Phe(3-Me)][aThr]P[Piperazine(2S-CO,4-Me)]A[Pro(4R-Me)]; ester 2-C)
output: 0.91

input: Can you share its Human? I mean this compound: Cc1cccc(C[C@H](NC(=O)Nc2ccc(Cl)cc2F)C(=O)N[C@H]2COC(=O)[C@@H]3C[C@@H](C)CN3C(=O)[C@H](C)NC(=O)[C@@H]3CCCCN3C(=O)[C@@H]3C[C@@H](O)CN3C2=O)c1
output: 0.29

---

Give solubility kinetic at 10 min for every item shown.
# assay explanation: Solubility determination
# Assay type: physicochemical
# assay setup: 22 °C, aqueous buffer, kinetic from dmso stock
Numbered stars: 1 amine (or outer) side, 2 acyl side, 3 side chain; on linkers, the order of the positions; unused ones are H or OH. Bridge positions count the residues as written; N and C are the ends. Square brackets hold non-standard residues; d marks the D form. Peptide text beside a SMILES is read from it. * marks the point of attachment. Piperazine(2S-CO,4-Me) = CN1CCN[C@H](C(=O)O)C1; Phe(3,5-F2) = N[C@@H](Cc1cc(F)cc(F)c1)C(=O)O; Phe(3-Me) = Cc1cccc(C[C@H](N)C(=O)O)c1; X4 = O=C1CN([*:1])[C@H](C(=O)[*:2])CN1; NH(4-Cl-2-F-phenyl) = Fc1cc(Cl)ccc1N*; Pro(4R-Me) = C[C@H]1CN[C@H](C(=O)O)C1; NH(4-Et-phenyl) = CCc1ccc(N*)cc1; aThr = C[C@H](O)[C@H](N)C(=O)O; CO = O=C([*:1])[*:2]
Entry rule: numbers only, all in µM.

input: Can you share its solubility kinetic at 10 min? I mean this compound: CCc1ccc(NC(=O)N[C@@H](Cc2cccc(C)c2)C(=O)N[C@H]2COC(=O)[C@@H]3C[C@@H](C)CN3C(=O)[C@H](C)NC(=O)[C@@H]3CN(C)CCN3C(=O)[C@@H]3CCCN3C2=O)cc1 [Compound 16] ({NH(4-Et-phenyl)-CO}-[Phe(3-Me)]SP[Piperazine(2S-CO,4-Me)]A[Pro(4R-Me)]; ester 2-C)
output: 53.2

input: Can you share its solubility kinetic at 10 min? I mean this compound: C[C@@H]1C[C@H]2C(=O)OC[C@H](NC(=O)[C@H](Cc3cc(F)cc(F)c3)NC(=O)Nc3ccc(Cl)cc3F)C(=O)N3CCC[C@H]3C(=O)N3CCN(C)C[C@H]3C(=O)N[C@@H](C)C(=O)N2C1 [Compound 34] ({NH(4-Cl-2-F-phenyl)-CO}-[Phe(3,5-F2)]SP[Piperazine(2S-CO,4-Me)]A[Pro(4R-Me)]; ester 2-C)
output: 53.6

input: Can you share its solubility kinetic at 10 min? I mean this compound: Cc1cccc(C[C@H](NC(=O)Nc2ccc(Cl)cc2F)C(=O)N[C@@H]2C(=O)N3CCC[C@H]3C(=O)N3CC(=O)NC[C@H]3C(=O)N[C@@H](C)C(=O)N3C[C@H](C)C[C@H]3C(=O)O[C@H]2C)c1 [Compound 20] ({NH(4-Cl-2-F-phenyl)-CO}-[Phe(3-Me)][aThr]P[X4]A[Pro(4R-Me)]; ester 2-C)
output: 34.4

---

# assay explanation: Solubility determination
# Type: physicochemical
# assay setup: 22 °C, aqueous buffer, kinetic from dmso stock; solubility in DPBS, 100 μM test samples, LCMS; read-out: LCMS
Numbered stars: 1 amine (or outer) side, 2 acyl side, 3 side chain; on linkers, the order of the positions; unused ones are H or OH. Bridge positions count the residues as written; N and C are the ends. Square brackets hold non-standard residues; d marks the D form. Peptide text beside a SMILES is read from it. * marks the point of attachment. Phe(3,5-Me2) = Cc1cc(C)cc(C[C@H](N)C(=O)O)c1; Phe(3-Me) = Cc1cccc(C[C@H](N)C(=O)O)c1; Pro(4R-Me) = C[C@H]1CN[C@H](C(=O)O)C1; Hyp = O=C(O)[C@@H]1C[C@@H](O)CN1; NH(4-Me-phenyl) = Cc1ccc(N*)cc1; aThr = C[C@H](O)[C@H](N)C(=O)O; Pip = O=C(O)[C@@H]1CCCCN1; 4Abz = Nc1ccc(C(=O)O)cc1; CO = O=C([*:1])[*:2]
measurement kind: solubility kinetic at 10 min (µM)
Entry rule: numbers only, all in µM.

input: Can you share its solubility kinetic at 10 min? I mean this compound: Cc1ccc(NC(=O)N[C@@H](Cc2cc(C)cc(C)c2)C(=O)N[C@@H]2C(=O)N3CCC[C@H]3C(=O)N3CCCC[C@H]3C(=O)N[C@@H](C)C(=O)N3C[C@H](C)C[C@H]3C(=O)O[C@H]2C)cc1 [Compound 2] ({NH(4-Me-phenyl)-CO}-[Phe(3,5-Me2)][aThr]P[Pip]A[Pro(4R-Me)]; ester 2-C)
output: 6.7

input: Can you share its solubility kinetic at 10 min? I mean this compound: CCOC(=O)c1ccc(NC(=O)N[C@@H](Cc2cccc(C)c2)C(=O)N[C@@H]2C(=O)N3C[C@H](O)C[C@H]3C(=O)N3CCCC[C@H]3C(=O)N[C@@H](C)C(=O)N3C[C@H](C)C[C@H]3C(=O)O[C@H]2C)cc1 [Compound 36] ({OEt-4Abz-CO}-[Phe(3-Me)][aThr][Hyp][Pip]A[Pro(4R-Me)]; ester 2-C)
output: 8.17

input: Can you share its solubility kinetic at 10 min? I mean this compound: Cc1ccc(NC(=O)N[C@@H](Cc2cccc(C)c2)C(=O)N[C@H]2COC(=O)[C@@H]3C[C@H](C)CN3C(=O)[C@H](C)NC(=O)[C@@H]3CCCCN3C(=O)[C@@H]3CCCN3C2=O)cc1 (stereo in doubt) [Compound 43]
output: 42.2

input: Can you share its solubility kinetic at 10 min? I mean this compound: Cc1ccc(NC(=O)N[C@@H](Cc2cccc(C)c2)C(=O)N[C@H]2COC(=O)[C@@H]3CCCN3C(=O)[C@H](C)NC(=O)[C@@H]3CCCCN3C(=O)[C@@H]3C[C@@H](O)CN3C2=O)cc1 [Compound 49]
output: 17
